Recorded %Inh for the following compounds
Tested on: PRKD3;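 note: KINOMEscan kinase panel screen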
Conditions: concentration: 1 μM,replicates: in singlicate; n = 1
Use % as the unit, but write only the number.

Worked set:
{"columns": ["compound", "reported"],
 "data": [
  ["COC(=O)c1cccc(NC(=O)NC2CCN(c3ccnc(NCc4ccc(F)cc4)n3)CC2)c1 [GSK1379860]", 25],
  ["CN(c1ccccc1CNc1nc(Nc2ccc3c(c2)CC(=O)N3)ncc1C(F)(F)F)S(C)(=O)=O", 70],
  ["CN1CCN(CCNc2nc3cc(Oc4ccc(NC(=O)Nc5cc(C(F)(F)F)ccc5F)cc4)ccc3[nH]2)CC1.Cl.Cl [GW768504]", 0],
  ["CCOC(=O)N1CCC(n2cnc(-c3ccc(F)cc3)c2-c2ccnc(N)n2)CC1 [SB-219952]", 0],
  ["Cn1ccc2ncnc(Oc3ccc(NC(=O)Nc4ccnc(C(F)(F)F)c4)c(Cl)c3)c21", 0]
]}

## Task # get_value(readout='%Inh', item= COc1cc2c(Nc3ccc(NC(=O)c4ccccc4)cc3)ncnc2cc1OCCCN1CCOCC1 [GSK301329] )
## Result 0

## Task Record request: %Inh value, item O=C(NOCC1CC1)c1cc(Br)c(F)c(F)c1Nc1ccc(I)cc1Cl
## Result 0

## Task If you can, please state the reported %Inh value of C[C@@H](Oc1cc(-n2cnc3cc(-c4cnn(C)c4)ccc32)sc1C(N)=O)c1ccccc1Cl [GSK580432] .
## Result 0

## Task Report %Inh for COc1ccc(Nc2nccc(N3CCC(NC(=O)c4cccc(C#N)c4)C3)n2)cc1 (centres unmarked) [GSK1379730] please.
## Result 0

## Task Value lookup for %Inh; key = C[C@@H]1CCN(C(=O)N2CCCC2)C[C@@H]1N(C)c1ncnc2[nH]ccc12
## Result 26

## Task Bench note: what %Inh did CS(=O)(=O)c1cccc(CNc2nc(Nc3ccc4c(c3)[C@@H]3C[C@@H]4CNC3=O)ncc2C(F)(F)F)c1 show?
## Result 22

## Task For the compound O=C(Nc1ccccc1)c1cccc(Oc2ccc3nccn3n2)c1 , what %Inh is on record?
## Result 1

## Task Record request: %Inh value, item Cl.Cl.NC[C@H](CC1CCCCC1)NC(=O)c1ccc(-c2ccnc3[nH]ccc23)s1 [GSK1581428]
## Result 96.2

## Task May I ask what %Inh has been recorded for Cc1nnc(-c2ccc3occ(-c4ccc(S(C)=O)cc4)c3n2)o1 (centres unmarked) ?
## Result 0

## Task Name the reported %Inh value associated with the compound Cn1ccc2ncnc(Oc3ccc(NC(=O)Nc4cccc(C(F)(F)F)c4)c(Cl)c3)c21
## Result 9

## Task Suppose we examine the compound NC(=O)Nc1sc(-c2ccc(F)cc2)cc1C(N)=O [GW789449] ; what %Inh value has been reported?
## Result 0

## Task Form field: reported %Inh of C[C@@H](Oc1cc(-n2cnc3cc(-c4ccncc4)ccc32)sc1C(N)=O)c1ccccc1Cl [GSK479719]
## Result 16
